# assay.details: qHTS to identify inhibitors of the type 1 interferon - major histocompatibility complex class I in skeletal muscle: primary screen against the NCATS Mechanism Interrogation Plate v5.0 (MIPE) Libary (AID 1347411); note: nearly all actives have a fitted effect of over 65% in size
# condition: iHSKM cells + IFN-b, HiBiT-tagged MHC-I luminescence, 24 h; series mostly up to 45.8 µM
Records with an inconclusive call do not appear. The source made the active and inactive calls. Calls come from the whole dose curve; as a rule, active = well fitted inhibition curve with a large enough effect; inconclusive = small, poorly fitted or top-dose-only effect; inactive = no such curve, though single readings can be large or run the other way.
Outcome codes: active, inactive

| compound | assigned.class |
| --- | --- |
| CC(C)(CNC(=O)c1cccc(-c2noc(C(F)(F)F)n2)c1)c1coc(-c2ccccc2)n1 | inactive |
| COc1cc2c(cc1OCCCN1CCCC1)N=C(N)C21CCC1 | inactive |
| NCCOc1cc(C(=O)Nc2cc(OCCN)c3ccccc3n2)nc(C(=O)Nc2cc(OCCN)c3ccccc3n2)c1 | inactive |
| COc1cc(S(C)(=O)=O)ccc1Nc1nc2ccc(-c3ccc(NC(=O)[C@H](C)c4ccc(F)cc4)cc3)cn2n1 | inactive |
| Cc1ccc(C(=O)Nc2ccc(CN3CCN(C)CC3)c(C(F)(F)F)c2)cc1C#Cc1cnc2[nH]ncc2c1 | active |
| C=CC(=O)Nc1cccc(Nc2nc(Nc3ccc(NC4CN(CCF)C4)cc3OC)ncc2C(F)(F)F)c1 | active |
| COc1cccc(-c2cc(F)ccc2C2Cc3nc(N)nc(C)c3C(=O)N2)n1 (centres undefined) | active |
| COc1cc(OC)c2c(=O)[nH]c(-c3cc(C)c(OCCO)c(C)c3)nc2c1 | inactive |
| COC(=O)N1CC2(CC2)C[C@H](C(=O)NO)[C@H]1C(=O)N1CCN(c2ccccc2)CC1 | inactive |
| C[C@H](CN(C)C)Oc1nc(Nc2cc3cccc(Cl)c3cn2)cnc1C#N | inactive |
| O=C(Nc1cccnc1)c1cc(-c2ccnc(F)c2)ccc1OCc1ccccc1 | inactive |
| CN(C)N(C)C(=O)[C@@]1(Cc2ccccc2)CCCN(C(=O)[C@@H](Cc2c[nH]c3ccccc23)NC(=O)C(C)(C)N)C1 | inactive |
| Cn1cc(-c2cnn3c(N)c(Br)c(C4CCCNC4)nc23)cn1 (centres undefined) | inactive |
| N#Cc1ccnc(Nc2cc(C3CCN(C4COC4)CC3)cc(N3CCC(F)(F)C3)n2)c1 | active |
| COC1CCN(C(=O)c2cc(Cc3n[nH]c(=O)c4ccccc34)ccc2F)CC1 | inactive |
| FC(F)(F)c1ccc(/C=C/c2nc(COc3ccc(CCCCn4ccnn4)cc3)co2)cc1 | inactive |
| CCNC(=O)C#Cc1ccc2c(C(=Nc3ccc(CN(C)C)cc3)c3ccccc3)c(O)[nH]c2c1 | active |
| C[C@@H]1CN(CC(=O)N2CC(C)(C)c3ncc(Cc4ccc(F)cc4)cc32)[C@@H](CN2CCOC[C@H]2C)CN1 | inactive |
| Cn1ncnc1[C@H]1c2n[nH]c(=O)c3cc(F)cc(c23)N[C@@H]1c1ccc(F)cc1 | inactive |
